study target: 4-galactosyl-N-acetylglucosaminide 3-alpha-L-fucosyltransferase FUT6 (Homo sapiens)
Sequence (P51993 whole entry): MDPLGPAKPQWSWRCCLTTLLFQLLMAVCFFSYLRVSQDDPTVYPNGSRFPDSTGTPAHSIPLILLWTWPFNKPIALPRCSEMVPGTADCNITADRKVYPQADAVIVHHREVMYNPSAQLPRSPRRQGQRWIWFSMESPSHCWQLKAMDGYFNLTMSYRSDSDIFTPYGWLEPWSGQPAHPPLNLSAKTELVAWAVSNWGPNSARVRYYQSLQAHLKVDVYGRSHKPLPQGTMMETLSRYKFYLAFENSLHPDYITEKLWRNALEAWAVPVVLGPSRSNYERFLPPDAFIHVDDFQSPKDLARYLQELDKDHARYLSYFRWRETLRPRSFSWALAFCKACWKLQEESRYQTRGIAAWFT
Each record here notes measured pIC50.
Scale explanation: pIC50 corresponds to minus log10 of a concentration expressed in moles per litre.

Asked: Respond only with pIC50 recorded for Nc1nc(O)c2ncn(C3O[C@H](COP(=O)(O)OP(=O)(O)OCc4cn(CC(=O)NC(Cc5ccccc5)c5ccccc5)nn4)[C@@H](O)[C@H]3O)c2n1 (stereo not given in full)
Given back: 5.79

====

Target protein (sequence): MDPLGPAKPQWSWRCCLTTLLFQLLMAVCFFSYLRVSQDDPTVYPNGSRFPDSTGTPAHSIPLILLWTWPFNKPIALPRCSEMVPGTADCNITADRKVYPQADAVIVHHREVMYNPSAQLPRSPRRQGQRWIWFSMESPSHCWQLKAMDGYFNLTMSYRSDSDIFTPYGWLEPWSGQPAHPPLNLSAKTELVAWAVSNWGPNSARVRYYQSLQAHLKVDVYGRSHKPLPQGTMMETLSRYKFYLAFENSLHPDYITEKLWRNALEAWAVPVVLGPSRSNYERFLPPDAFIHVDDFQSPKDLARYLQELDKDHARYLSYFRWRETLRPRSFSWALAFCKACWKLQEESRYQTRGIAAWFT
value type: pIC50
Scale explanation: pIC50 corresponds to minus log10 of a concentration expressed in moles per litre.

Below are worked cases with known answers.
Nc1nc2c(ncn2C2O[C@H](COP(=O)(O)OP(=O)(O)OCc3cn(CCC(=O)NCc4cccc5ccccc45)nn3)[C@@H](O)[C@H]2O)c(=O)[nH]1 (some centres undefined)	5.48
Nc1nc(O)c2ncn(C3O[C@H](COP(=O)(O)OP(=O)(O)OCc4cn(CCCCC(=O)NC(Cc5ccccc5)c5ccccc5)nn4)[C@@H](O)[C@H]3O)c2n1 (some centres undefined)	5.86
Nc1nc(O)c2ncn(C3O[C@H](COP(=O)(O)OP(=O)(O)OCc4cn(CCCCC(=O)NC5=CC6C(=O)c7ccccc7C(=O)C6C=C5)nn4)[C@@H](O)[C@H]3O)c2n1 (some centres undefined)	5.72

Pending compound:
Asked: Respond only with pIC50 recorded for Nc1nc2c(ncn2C2O[C@H](COP(=O)(O)OP(=O)(O)OCc3cn(CCCC(=O)NC(Cc4ccccc4)c4ccccc4)nn3)[C@@H](O)[C@H]2O)c(=O)[nH]1 (some centres undefined)
Given back: 5.40
